- study_system: Virion infectivity factor (Human immunodeficiency virus type 1 group M subtype B (isolate BH10)) + Virion infectivity factor (Human immunodeficiency virus type 1 group M subtype B (isolate BRU/LAI)) + Virion infectivity factor (Human immunodeficiency virus type 1 group M subtype B (isolate PCV12)) + Virion infectivity factor (Human immunodeficiency virus type 1 group M subtype B (isolate HXB2)) + DNA dC->dU-editing enzyme APOBEC-3G (Homo sapiens) (UniProt P69720+P69721+P69722+P69723+Q9HC16)
- test_method_notes: inhibitors of Vif binding to APOBEC3G peptide, primary screen, biochemical, TR-FRET, GST-Vif 1-94, biotin-A3G peptide, dose response retest (AID 1117319);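 also: Vif residues 1-94 fused to GST binding biotinylated APOBEC3G peptide 110-148; 0% = full assay without inhibitor and 100% = GST in place of GST-Vif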
- experimental_conditions: stronger effect = higher value
The whole screen tested about 260,000 compounds, of which about 1,500 (0.58%) were called active. About 5% were inconclusive and are not listed. Only a sample is shown. Measured potencies and affinities stand elsewhere.
property_label: inhibition (%)
One number for each entry, in %.

Illustrative cases are given below, each with its answer.
Cc1cccc(-n2c(SCC(=O)NCc3ccc4c(c3)OCO4)nc3ccccc3c2=O)c1 : 19.8
COc1cccc(-c2nnc3sc(-c4ccco4)nn23)c1 : 5.27
c1coc(-c2nn3c(-c4ccco4)nnc3s2)c1 : 24.5
O=C(Nc1ccc(Br)cn1)C1CCCN1S(=O)(=O)c1ccccc1 (stereo not drawn) : 4.08
CCOc1cccc(C2C(C#N)=C(N)Oc3cc(C)n(Cc4ccccn4)c(=O)c32)c1OCC (stereo not drawn) : 14.3

Batch of 7 compounds: report inhibition for each.
1. Cc1ccc(N(CC(=O)NCc2cccnc2)S(C)(=O)=O)cc1C
2. Cc1ccc(NS(=O)(=O)c2csc(C(N)=O)c2)cc1C
3. COc1cc(/C=C2\SC(=S)N(NC(=O)c3ccccc3O)C2=O)ccc1O
4. CC(C)(C)n1nnnc1C(c1ccc2ncccc2c1)N1CCC(O)CC1 (stereo not drawn)
5. Cc1nn(C)c(Cl)c1C(=O)NCC(=O)O
6. COc1ccc(NC(=O)CN(C)C(=O)c2sc3ccccc3c2Cl)cc1
7. CN(C)c1ccc(CNC(=O)C2CCN(S(=O)(=O)c3ccc4c(c3)oc(=O)n4C)CC2)cc1

Reply:
-4.47
-5.43
5.15
-3.23
-8.59
1.23
-3.31

Batch of 3 compounds: report inhibition for each.
1. Nc1ccc(S(=O)(=O)c2cccc(N)c2)cc1
2. O=C(N/N=C1\CCCc2ccccc21)c1cccc([N+](=O)[O-])c1
3. CC(Sc1nc2cc([N+](=O)[O-])ccc2n1-c1ccc(F)cc1)C(=O)NCc1ccc2c(c1)OCO2 (stereo not drawn)

Reply:
1. 0.36
2. 3.37
3. -9.4

Batch of 8 compounds: report inhibition for each.
1. CCc1ccc(NC(=O)C2CCN(S(C)(=O)=O)CC2)cc1
2. CC1(C)Cc2ccccc2C(C(=O)c2ccccc2)=N1
3. CCCn1nnc(NC(=O)c2ccc(-c3cc(Cl)ccc3Cl)o2)n1
4. CC(/C=C1\SC(=S)N(NS(=O)(=O)c2ccccc2)C1=O)=C\c1ccccc1
5. CC(C)(C)c1cc(NC(=O)COC(=O)C2CC2)n(-c2ccccc2)n1
6. COc1cccc(N(CC(=O)NCc2cccnc2)S(C)(=O)=O)c1
7. O=c1cc(O)n(-c2ccccc2)c(=S)[nH]1
8. O=c1cc(O)n(-c2ccc(Cl)cc2)c(=S)[nH]1

Reply:
1: -4.22; 2: -10.3; 3: 3.66; 4: -6.38; 5: -5.93; 6: -2.81; 7: 30.2; 8: -0.58
